These data points were gathered from patent EP0118571A1.

- MEASUREMENT_TARGET: bovine lens AR (BLAR) (Bos taurus, UniProt P16116)
- Construct: BLAR and RLAR were purified according to the method of Inagaki et al; from tissue; host or cells: bovine lens
- TEST_NAME: Aldose reductase (AR) activity assay, bovine lens AR (NADPH oxidation, DL-glyceraldehyde substrate)
- Type: biochemical
- EXPERIMENTAL_CONDITIONS: purified BLAR; Table 2; read-out: IC50 (M) X 10^6 BLAR
RESULT_TYPE: IC50 (M)
Write it as a number; the unit M goes unstated.

Short answer for C[C@@H]1O[C@@H](Oc2c(-c3ccc(O)c(O)c3)oc3cc(O)cc(O)c3c2=O)[C@H](O)[C@H](O)[C@H]1O : IC50 was 3.3e-06
